ASSAY OVERVIEW: Primary qHTS for delayed death inhibitors of the malarial parasite plastid, 48 hour incubation
MEASUREMENT CONDITIONS: P. falciparum luciferase growth in erythrocytes; series mostly up to 28.7 µM
Screen size: about 310,000 compounds; about 18,000 (5.8%) were called active. About 22% were inconclusive and are not listed. The call rests on the fitted dose curve; in most records, active means well fitted inhibition curve with a large enough effect; inconclusive means small, poorly fitted or top-dose-only effect, or another doubt; inactive means no such curve, though single readings can be large or run the other way. Many of the other results were omitted from the sample, so actives are more common in it than they were.
The categories you may choose from are 1 = active, 0 = inactive

As a guide, the following entries are already answered.
compound="O=C(c1ccccc1)c1ccc(OCC(O)CN2CCCC2)cc1 (stereo not given)" class_name=0
compound=CCN(CC)c1ccc2oc(=O)c(C)nc2c1 class_name=1
compound=CCN(CC)c1ccc2cc(C(N)=O)/c(=N\NC(=O)c3ccncc3)oc2c1 class_name=0
compound="O=[N+]([O-])c1ccc(N2CCN(CC(O)COc3ccccc3)CC2)cc1 (stereo not given)" class_name=0
compound="CCn1c(SCC(=O)NCC2CCCO2)nc2ccccc21 (stereo not given)" class_name=0

INPUT: Dear colleague, could you share the recorded outcome for CCC(=O)Nc1ccc(C(=O)NNC(=O)c2ccc(Cl)cc2)cc1 when you have a moment?
OUTPUT: 0

INPUT: // repeat for CCc1cccc(NC(=O)COC(=O)c2cc(=O)c3ccccc3o2)c1 and report
OUTPUT: 0

From: PubChem BioAssay AID504832
